For each record, write down the corresponding self-cleavage.
B1: HDV Ribozyme (parent)
chain: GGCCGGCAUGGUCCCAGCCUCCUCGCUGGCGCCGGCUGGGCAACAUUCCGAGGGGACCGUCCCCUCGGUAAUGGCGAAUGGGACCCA

# Variants of: B1
# measurement_notes: self-cleavage, relative activity (ratio to wild type); higher = more cleavage; co-transcriptional

Query: Field request: self-cleavage | item: AGCCGGCAUGGUCCCAGCCUCCUCGCUGGCGCCGGCUGGGCAACAUUCCGAGGGGACCGUCCCCUCGGUAAUGGCCAAUGGGACCCA [G1A G76C]
Result: 0.185

Query: Field request: self-cleavage | item: GGCCGGCAUGGUCCCAGCCUCCUCCCUGGCGCCGGCUGGGCAACAUUCCGAGGGCACCGUCCCCUCGGUAAUGGCGAAUGGGACCCA [G25C G55C]
Result: 0.106

Query: Field request: self-cleavage | item: GGCCGGCAAGGUCCCAGCCUCUUCGCUGGCGCCGGCUGGGCAACAUUCCGAGGGGACCGUCCCCUCGGUAAUGGCGAAUGGGACCCA [U9A C22U]
Result: 0.831

Query: Field request: self-cleavage | item: GGCCGGCAUGGUCCCAGCCUCCUCACUGGCACCGGCUGGGCAACAUUCCGAGGGGACCGUCCCCUCGGUAAUGGCGAAUGGGACCCA [G25A G31A]
Result: 0.0773

Query: Field request: self-cleavage | item: GGCCGGCCUGGUCCCAGCCUCCUCGCUGGCGCCGGCUGGGCAACAUUCCGAGGGGACCGUCACCUCGGUAAUGGCGAAUGGGACCCA [A8C C62A]
Result: 0.918

Query: Field request: self-cleavage | item: GGCCGGCAUGGUCCCAGCCUCCUCGCUGGCGCCGGCUGGGCAACAUACCGAGGGGACCGUCCCAUCGGUAAUGGCGAAUGGGACCCA [U47A C64A]
Result: 1.08

Query: Field request: self-cleavage | item: GGCCGGCAUGGUCCCAGCCUCCUCGCUGGCGCCGGCUGGGCAACAUUCCGAGGGGACCGUCCCCUCGGUAAUGGCGACUGGGACCCC [A78C A87C]
Result: 0.199

Query: Field request: self-cleavage | item: GGCCGGCAUGGUCCCAGCCUCCUCGCUGGCGCCGGCUGGGCAACAUUACGAGUGGACCGUCCCCUCGGUAAUGGCGAAUGGGACCCA [C48A G53U]
Result: 0.915

Query: Field request: self-cleavage | item: GGCCGGCAUAGUCCCAGCCUCCUCGCUGGCGCCGGCUGUGCAACAUUCCGAGGGGACCGUCCCCUCGGUAAUGGCGAAUGGGACCCA [G10A G39U]
Result: 0.293

Query: Field request: self-cleavage | item: GGCCGGCAUGGUCCCAGCCUCCUCGCUGGCGCCGGCUAGGCAACAUUCCGAGGGGACCGUCCCCUCGGUAAUGGCGAAUGUGACCCA [G38A G81U]
Result: 0.176

Query: Field request: self-cleavage | item: GGCCGGCAUGUUCCCAGCCUCCUCGCUGGCGCCGGCUGGGCAACAUUCCGAGGGGACCGUCCCCUCGGUAAUGGCGAAAGGGACCCA [G11U U79A]
Result: 0.148
